All figures here come from ChEMBL document CHEMBL1201862.

system: U-251; assay: NCI tumour cell line growth inhibition, 48 h
Active and inactive are the calls of the source. Cut-off read from the data, not from the text of the source: active = GI50 up to about 1.1 µM and inactive = higher.
The reply should be one of these categories: YES for active, NO for inactive

Below, 5 compounds whose answers are already recorded.
C1=Cc2nc1c(-c1ccccc1)c1ccc([n-]1)c(-c1ccccc1)c1nc(c(-c3ccccc3)c3ccc([n-]3)c2-c2ccccc2)C=C1.[Zn+2] : NO
O=C1CCC2(CC1)SCCCS2 : NO
CC1CCC2(OC1)OC1CC3C4CC=C5CC(OC6OC(CO)C(OC7OC(C)C(OC8OC(C)C(O)C(O)C8O)C(O)C7O)C(O)C6OC6OC(C)C(O)C(O)C6O)CCC5(C)C4CCC3(C)C1C2C (stereo unspecified) : YES
Nc1ccc(S(=O)(=O)c2ccc(/N=[N+](\[O-])c3ccc(S(=O)(=O)c4ccc(N)cc4)cc3)cc2)cc1 : NO
N#Cc1c(O)nc2[nH]nc(/N=N\c3c(O)ccc4ccccc34)c2c1-c1ccc(Cl)cc1 : YES

Okay, next one:
Ask | Per the records of this test, what outcome belongs to "N#Cc1nc(COCCOCc2ccccc2)oc1N" ?
Reply | NO

====

The entries below are paired with their reported GI50.
system: DU-145; experiment: NCI tumour cell line growth inhibition, 48 h
Calls of active or inactive are those of the source. Cut-off read from the data, not from the text of the source: active = GI50 up to about 1.1 µM and inactive = higher.

Use these answered entries as a reference point.
O=C(NC(=S)Nc1ccc(Br)cc1)c1ccc2c(c1)Sc1ccccc1S2 : 17.3 µM (inactive)
NC(=O)NC(=O)c1cccc(CNc2ccc(C(=O)N[C@@H](CCC(=O)O)C(=O)O)cc2)n1 : > 100 µM (inactive)
O=P1(N(CCCl)CCCl)Oc2ccc(Cl)cc2Sc2c(ccc(Cl)c2Cl)O1 (stereo unspecified) : 63.7 µM (inactive)
Cc1cnc2c(c1)C(=O)N(c1ccc(Br)cc1)S2(=O)=O : > 100 µM (inactive)
N#Cc1c(N)oc(-c2cccc([N+](=O)[O-])c2)c1C#N : > 100 µM (inactive)

Ask | Requested read-out: GI50. Entry: "O=c1[nH]c2ccc([N+](=O)[O-])c(Cl)c2c2ccccc12"
Reply | 3.06 µM (inactive)

Ask | Requested read-out: GI50. Entry: "O=C(c1c2c(cc3c1CC1(Cc4cc5c(cc4C1)CCCC5)C3)CCCC2)C(Br)Br"
Reply | > 58.5 µM (inactive)

Ask | Requested read-out: GI50. Entry: "CC(C)SC(=S)Sc1c(Cl)c(Cl)nc(Cl)c1Cl"
Reply | 3.94 µM (inactive)

Ask | Requested read-out: GI50. Entry: "COc1cc(OC)cc(-n2c(N)c(C#N)c3ccc([N+](=O)[O-])cc3c2=O)c1"
Reply | 20.8 µM (inactive)

Ask | Requested read-out: GI50. Entry: CC(C)C(NC(=O)Oc1ccccc1)C(=O)NC1c2c(Br)sc(Br)c2C(=O)C1O (stereo unspecified)
Reply | 9.4 µM (inactive)

Ask | Requested read-out: GI50. Entry: COc1ccc2c(c1)CCN1CCc3cc(OC)c(OC)cc3CC21 (stereo unspecified)
Reply | > 100 µM (inactive)

Ask | Requested read-out: GI50. Entry: CCOc1ccc(/N=N/C2C(=O)N(C(=O)CC(=O)Nc3ccccc3OC)N=C2C)cc1 (stereo unspecified)
Reply | > 77.6 µM (inactive)

Ask | Requested read-out: GI50. Entry: "CCCCCCc1ccc(CCCCCCCC(=O)O)o1"
Reply | > 100 µM (inactive)
